Some compounds, each annotated with its measured solubility thermodynamic.
- Experimental details: physchem
- Type: physicochemical
- Conditions: pH 2, simulated gastric fluid, thermodynamic from solid
Write it as a number; the unit µM goes unstated.

Examples from the recorded data:
CCc1nc2ccc(C)cn2c1C(=O)NCc1ccc(-c2cn3c(n2)CN(S(=O)(=O)C(F)(F)F)CC3)cc1 [Compound 79]    574
CCc1nc2ncc(C)cn2c1C(=O)NCc1ccc(-c2nc3n(n2)CCN(S(=O)(=O)C(F)(F)F)C3)c(F)c1 [Compound 7]    125
CCc1nc2ncc(Cl)cn2c1C(=O)NCc1ccc(-c2nc3n(n2)CCN(S(=O)(=O)C(F)(F)F)C3)cc1 [Compound 2]    0.99

Next:
Recorded solubility thermodynamic of CCc1nc2ncc(C)cn2c1C(=O)NCc1ccc(-c2cc3n(n2)CCN(S(=O)(=O)C(F)(F)F)C3)c(F)c1 [Compound 82] , please.
12.3

###

Some compounds, each annotated with its measured pIC50.
- Tested on: Mycobacterium tuberculosis strain (EH4.0, GFP-expressing; Test 2: H37Rv)
- Experimental details: MIC determination against M. tuberculosis, Test 1 (and/or Test 2)
- Type: cell-based
- Conditions: 7 days incubation, fluorescence
Lab note: jot the number down without any unit.

CCc1nc2ncc(C)cn2c1C(=O)NCCc1ccc(-c2nc3n(n2)CCN(S(=O)(=O)C(F)(F)F)C3)cc1    6.57
CCc1nc2cc(Cl)c(C)cn2c1C(=O)NCc1cnc(-c2nc3n(n2)CCN(S(=O)(=O)C(F)(F)F)C3)c(F)c1    6.48

Next:
Fill in the recorded pIC50 for this compound, with Mycobacterium tuberculosis strain (EH4.0, GFP-expressing; Test 2: H37Rv) as test system: CCc1nc2nc(C)c(Cl)cn2c1C(=O)NCc1ccc(-c2nc3n(n2)CCN(S(=O)(=O)C(F)(F)F)C3)cc1
7.58

###

Some compounds, each annotated with its measured pIC50.
- System: Mycobacterium tuberculosis strain (EH4.0, GFP-expressing; Test 2: H37Rv)
- Experimental details: MIC determination against M. tuberculosis, Test 1 (and/or Test 2)
- Format: cell-based
- Conditions: 7 days incubation, fluorescence
Marks after values point to notes of the source that are not given here.

CCc1nc2ncc(C)cn2c1C(=O)NCc1coc(-c2nc3n(n2)CCN(S(=O)(=O)C(F)(F)F)C3)n1    <6.3
CCc1nc2ncc(C)cn2c1C(=O)NC1(c2ccc(-c3nc4n(n3)CCN(S(=O)(=O)C(F)(F)F)C4)cc2)CC1    <6.3*
CCc1nc2nc(NC)c(Cl)cn2c1C(=O)NCc1ccc(-c2nc3n(n2)CCN(S(=O)(=O)C(F)(F)F)C3)c(F)c1    <6.301

Recorded pIC50 of CCc1nc2ncc(C)cn2c1C(=O)NCc1cccc(Cc2nc3n(n2)CCN(S(=O)(=O)C(F)(F)F)C3)c1 , please.
<6.3*

Values compiled from patent US20240182495A1.
